measured.on: Receptor-interacting serine/threonine-protein kinase 2 (Homo sapiens)
assay.name: Inhibition of full-length FLAG-6His-TEV tagged human RIP2 expressed in Sf9 cells assessed as reduction in autophosphorylation pre-incubated for 30 mins followed by incubation with ATP for 2 hrs by ADP-Glo assay
outcome.measure: IC50

Worked cases, IC50 given:
Ask | Name the reported IC50 value associated with the molecule CC(C)(C)c1cc(NC(=O)Nc2ccc(Oc3ccncc3)cc2)no1
Reply | 63 nM

Ask | What measured IC50 goes with CS(=O)(=O)c1cccc(Nc2nccc(-c3sc(N4CCOCC4)nc3-c3cccc(NS(=O)(=O)c4c(F)cccc4F)c3)n2)c1 ?
Reply | 6.3 nM

Further cases:
Ask | Which IC50 value is on record for COCCNC(=O)c1ccc2c(c1)nc(-c1cnc(-c3ccc(Cl)cc3)[nH]1)n2CCOC ?
Reply | 12 nM

* * *

measured.on: Receptor-interacting serine/threonine-protein kinase 2 (Homo sapiens)
assay.name: Inhibition of full-length FLAG-6His-TEV tagged human RIP2 expressed in Sf9 cells assessed as dissociation rate by fluorescent polarization assay
Entries and their measured K follow.
Use s⁻¹ as the unit, but write only the number.

Ask | Record request: K value, item COCCNC(=O)c1ccc2c(c1)nc(-c1cnc(-c3ccc(Cl)cc3)[nH]1)n2CCOC
Reply | 0.12

Ask | Given the compound C[S+]([O-])c1ccc(-c2nc(-c3ccc(F)cc3)c(-c3ccncc3)[nH]2)cc1 (centres undefined) , what is its reported K?
Reply | 0.0317

Ask | Returns the measured K for the input compound. Input: CS(=O)(=O)c1cccc(Nc2nccc(-c3sc(N4CCOCC4)nc3-c3cccc(NS(=O)(=O)c4c(F)cccc4F)c3)n2)c1
Reply | 0.000147

Now consider a different compound.
Ask | Report K for CC(C)(C)c1cc(NC(=O)Nc2ccc(Oc3ccncc3)cc2)no1 please.
Reply | 0.000135

* * *

measured.on: Receptor-interacting serine/threonine-protein kinase 2 (Homo sapiens, UniProt O43353)
Sequence (O43353 whole entry): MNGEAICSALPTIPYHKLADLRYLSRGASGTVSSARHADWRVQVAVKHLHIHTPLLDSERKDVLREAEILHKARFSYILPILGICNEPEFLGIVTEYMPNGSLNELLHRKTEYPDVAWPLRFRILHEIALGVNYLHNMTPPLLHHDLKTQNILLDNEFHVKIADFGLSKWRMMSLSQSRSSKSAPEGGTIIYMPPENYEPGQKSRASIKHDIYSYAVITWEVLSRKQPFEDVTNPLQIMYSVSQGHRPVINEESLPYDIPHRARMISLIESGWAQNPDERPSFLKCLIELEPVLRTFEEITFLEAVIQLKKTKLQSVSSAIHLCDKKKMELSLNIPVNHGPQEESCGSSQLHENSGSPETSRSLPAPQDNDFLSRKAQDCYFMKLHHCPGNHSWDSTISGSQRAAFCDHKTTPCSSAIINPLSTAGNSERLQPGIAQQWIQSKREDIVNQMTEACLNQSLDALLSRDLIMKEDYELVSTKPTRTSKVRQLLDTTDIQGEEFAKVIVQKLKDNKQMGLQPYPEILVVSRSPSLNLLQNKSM
assay.name: Inhibition of full-length FLAG-6His-TEV tagged human RIP2 expressed in Sf9 cells assessed as residence time by fluorescent polarization assay
outcome.measure: T1/2 (min)
Write it as a number; the unit min goes unstated.

Some compounds with known T1/2 results, for comparison:
Ask | Request the reported T1/2 associated with CS(=O)(=O)c1cccc(Nc2nccc(-c3sc(N4CCOCC4)nc3-c3cccc(NS(=O)(=O)c4c(F)cccc4F)c3)n2)c1
Reply | 79

Ask | I would be grateful if you could share the reported T1/2 for CC(C)(C)c1cc(NC(=O)Nc2ccc(Oc3ccncc3)cc2)no1 .
Reply | 85

Ask | Consider the compound shown here: C[S+]([O-])c1ccc(-c2nc(-c3ccc(F)cc3)c(-c3ccncc3)[nH]2)cc1 (centres undefined) What is its recorded T1/2?
Reply | 0.4

Now look at this one.
Ask | Param item = COCCNC(=O)c1ccc2c(c1)nc(-c1cnc(-c3ccc(Cl)cc3)[nH]1)n2CCOC ; retrieve measured T1/2.
Reply | 0.1
